meta.source: ChEMBL document CHEMBL1156783

Quick reference: inhibition at 0.25 h, 10 µM of the listed items.
target: CYP2D6 (Homo sapiens, UniProt P10635); assay: Inhibition of human CYP2D6 at 10 uM after 15 mins; format: ADME
Sequence (P10635 whole entry): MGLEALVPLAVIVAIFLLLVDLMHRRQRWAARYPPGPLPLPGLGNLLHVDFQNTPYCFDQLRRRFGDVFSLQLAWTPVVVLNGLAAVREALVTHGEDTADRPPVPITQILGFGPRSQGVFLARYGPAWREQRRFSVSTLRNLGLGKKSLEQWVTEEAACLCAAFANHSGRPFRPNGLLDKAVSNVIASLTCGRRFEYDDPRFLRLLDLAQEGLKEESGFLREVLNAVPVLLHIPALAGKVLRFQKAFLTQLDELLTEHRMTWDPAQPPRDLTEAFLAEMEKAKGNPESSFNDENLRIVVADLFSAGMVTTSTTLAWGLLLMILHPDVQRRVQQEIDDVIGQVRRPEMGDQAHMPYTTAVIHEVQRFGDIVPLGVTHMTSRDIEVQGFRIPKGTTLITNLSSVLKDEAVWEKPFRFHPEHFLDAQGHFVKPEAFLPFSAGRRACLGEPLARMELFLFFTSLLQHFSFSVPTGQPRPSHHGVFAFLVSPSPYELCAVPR
Answer as a quantity: numeral, then unit.

smiles-data	inhibition at 0.25 h, 10 µM
Fc1cc(-c2ccnc(Nc3ccc(-n4cnc(N5CCOCC5)n4)cc3)n2)cc(N2CCOCC2)c1	4%
Cn1nnc(-c2ccc(Nc3nccc(-c4cc(C#N)cc(N5CCOCC5)c4)n3)cc2)n1	10%

Task: For "N#Cc1cc(-c2ccnc(Nc3ccc(-n4cnc(-c5ccccn5)n4)cc3)n2)cc(N2CCOCC2)c1" , write its inhibition at 0.25 h, 10 µM.
Result: -4%

Task: For "Cc1ncn(-c2ccc(Nc3nccc(-c4cccc(N5CCOCC5)c4)n3)cc2)n1" , write its inhibition at 0.25 h, 10 µM.
Result: 4%

###

assay: Cmax in Sprague-Dawley rat at 2 mg/kg, po; format: ADME, organism-based; design: dose 2 mg/kg, route oral; settings: in vivo
Quick reference: Cmax of the listed items.
Quick reminder: number only, in nM, skip the unit.

smiles-data	uom	Cmax
Cn1nnc(-c2ccc(Nc3nccc(-c4cc(C#N)cc(N5CCOCC5)c4)n3)cc2)n1	nM	70
N#Cc1cc(-c2ccnc(Nc3ccc(-n4cnc(-c5ccccn5)n4)cc3)n2)cc(N2CCOCC2)c1	nM	500
Fc1cc(-c2ccnc(Nc3ccc(-n4cnc(N5CCOCC5)n4)cc3)n2)cc(N2CCOCC2)c1	nM	300

Task: For "Cc1ncn(-c2ccc(Nc3nccc(-c4cccc(N5CCOCC5)c4)n3)cc2)n1" , write its Cmax.
Result: 950

###

assay: Plasma clearance in Sprague-Dawley rat at 1 mg/kg, iv and 2 mg/kg, po; format: ADME, organism-based
readout-kind: clearance (mL/min/kg)
Quick reminder: number only, in mL/min/kg, skip the unit.

# count of solved cases: 3
smiles-data	uom	measured-value
Cc1ncn(-c2ccc(Nc3nccc(-c4cccc(N5CCOCC5)c4)n3)cc2)n1	mL/min/kg	10
N#Cc1cc(-c2ccnc(Nc3ccc(-n4cnc(-c5ccccn5)n4)cc3)n2)cc(N2CCOCC2)c1	mL/min/kg	3
Cn1nnc(-c2ccc(Nc3nccc(-c4cc(C#N)cc(N5CCOCC5)c4)n3)cc2)n1	mL/min/kg	44

Now let's try a different one.
Task: For "Fc1cc(-c2ccnc(Nc3ccc(-n4cnc(N5CCOCC5)n4)cc3)n2)cc(N2CCOCC2)c1" , write its clearance.
Result: 20

###

Quick reference: Vd of the listed items.
experiment: Volume of distribution in Sprague-Dawley rat at 1 mg/kg, iv and 2 mg/kg, po; assay type: ADME, organism-based; conditions: in vivo
Quick reminder: number only, in L/kg, skip the unit.

smiles-data	Vd (L/kg)
N#Cc1cc(-c2ccnc(Nc3ccc(-n4cnc(-c5ccccn5)n4)cc3)n2)cc(N2CCOCC2)c1	0.6

Task: For "Cn1nnc(-c2ccc(Nc3nccc(-c4cc(C#N)cc(N5CCOCC5)c4)n3)cc2)n1" , write its Vd.
Result: 3.3

Task: For "Fc1cc(-c2ccnc(Nc3ccc(-n4cnc(N5CCOCC5)n4)cc3)n2)cc(N2CCOCC2)c1" , write its Vd.
Result: 2.5

Task: For "Cc1ncn(-c2ccc(Nc3nccc(-c4cccc(N5CCOCC5)c4)n3)cc2)n1" , write its Vd.
Result: 0.4
